Molecular target: SEX4 (Arabidopsis thaliana, UniProt Q9FEB5)
Construct: gift from Dr. Gentry's group, University of Kentucky College of Medicine
Sequence (Q9FEB5 90-379 limits assumed): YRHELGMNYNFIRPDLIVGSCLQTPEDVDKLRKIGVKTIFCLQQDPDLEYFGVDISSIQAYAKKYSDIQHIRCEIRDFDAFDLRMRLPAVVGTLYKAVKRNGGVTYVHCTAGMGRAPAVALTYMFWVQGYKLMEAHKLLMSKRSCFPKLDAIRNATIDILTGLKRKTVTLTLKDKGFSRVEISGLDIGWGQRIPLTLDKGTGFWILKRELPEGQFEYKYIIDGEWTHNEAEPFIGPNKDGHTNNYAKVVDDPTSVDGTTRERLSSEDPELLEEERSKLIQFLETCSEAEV
Assay: Phosphatase assay against pNPP, SEX4
Assay type: biochemical
Conditions: 50 mM pNPP, inhibitor 0–0.2 mM; average ± standard error of three measurements; read-out: IC50, pNPP assay, SEX4
quantity measured: IC50 (µM)
Answer in µM, number only, no unit symbol.

Task: State its IC50 for this molecule: CC(C)=CCc1c(-c2ccc(O)cc2O)oc2c(C3C=C(C)CC(C(=O)c4ccc(O)cc4O)C3c3ccc(O)cc3O)c(O)cc(O)c2c1=O (stereo not shown) [Compound H08, Moracenin B]
Result: 18.7

Task: For the molecule Cc1c(O)nc2[nH]c(=O)sc2c1C [Compound H03] , give its reported IC50.
Result: 39.6

Task: Give me measured IC50, please, for this molecule: O=C(O)c1cc(O)c2c(c1)[C@@H]([C@@H]1c3cc(C(=O)O)cc(O)c3C(=O)c3c(OC4OC(CO)C(O)C(O)C4O)cccc31)c1cccc(OC3OC(CO)C(O)C(O)C3O)c1C2=O (stereo partly shown) [Compound G11, Sennoside]
Result: 25.7

Task: Query IC50 for CCCc1c(O)nc2[nH]c(=O)sc2c1C [Compound D04]
Result: 21.6

====

Target: SEX4 (Arabidopsis thaliana)
Construct: gift from Dr. Gentry's group, University of Kentucky College of Medicine
Assay: Phosphatase assay against amylopectin, SEX4
Format: biochemical
quantity measured: pIC50
// scale note: pIC50 = -log10(conc_M); give the bare number

Task: Write pIC50 of O=C1C=CC(=O)c2c(O)ccc(O)c21 [Compound F09, Naphthazarin] ; system used: SEX4 (Arabidopsis thaliana)
Result: 5.13

====

Target: SEX4 (Arabidopsis thaliana)
Construct: gift from Dr. Gentry's group, University of Kentucky College of Medicine
Assay: Phosphatase assay against amylopectin, SEX4
Format: biochemical
Details: amylopectin 5–45 μg, inhibitor at IC50 concentration; average ± standard error of three measurements; read-out: Ki, amylopectin assay, SEX4
Output class 1 for records whose Ki is lower than 30 µM, class 0 for records at or above 30 µM.

Task: Strictly below 30 µM in Ki? O=C(O)c1cc(O)c2c(c1)[C@@H]([C@@H]1c3cc(C(=O)O)cc(O)c3C(=O)c3c(OC4OC(CO)C(O)C(O)C4O)cccc31)c1cccc(OC3OC(CO)C(O)C(O)C3O)c1C2=O (some centres unmarked) [Compound G11, Sennoside]
Result: class 1

Task: Decide: Ki of CCCc1c(O)nc2[nH]c(=O)sc2c1C strictly below 30 µM?
Result: class 1

Task: Quick check: does CC(C)=CCc1c(-c2ccc(O)cc2O)oc2c(C3C=C(C)CC(C(=O)c4ccc(O)cc4O)C3c3ccc(O)cc3O)c(O)cc(O)c2c1=O (centres unmarked) have Ki under 30 µM?
Result: class 0

Task: Find out if reported Ki for CCCCCC/C=C\CCCCCCCc1cccc(O)c1C(=O)O is less than 30 µM
Result: class 1

====

Consider the following molecules; for each one, report its pIC50.
Target: LSF2 (Arabidopsis thaliana)
Construct: gift from Dr. Gentry's group, University of Kentucky College of Medicine
Sequence (Q9SRK5 62-282): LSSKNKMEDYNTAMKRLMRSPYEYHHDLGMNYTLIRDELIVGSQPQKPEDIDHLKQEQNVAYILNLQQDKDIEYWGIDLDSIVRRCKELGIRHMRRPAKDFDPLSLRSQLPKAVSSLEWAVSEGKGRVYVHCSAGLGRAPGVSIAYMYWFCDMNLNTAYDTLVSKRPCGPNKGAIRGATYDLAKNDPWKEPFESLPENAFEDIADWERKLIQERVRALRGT
Experiment: Phosphatase assay against amylopectin, LSF2
Assay type: biochemical
Conditions: not determined with the maximum concentration of candidate compounds; read-out: IC50, amylopectin assay, LSF2
pIC50: −log10 of the molar value.

Task: Kindly indicate its recorded pIC50. Item: CCCCCC/C=C\CCCCCCCc1cccc(O)c1C(=O)O
Result: < 4.30

Task: Consider the molecule CC(C)=CCc1c(-c2ccc(O)cc2O)oc2c(C3C=C(C)CC(C(=O)c4ccc(O)cc4O)C3c3ccc(O)cc3O)c(O)cc(O)c2c1=O (stereo not shown) and give its recorded pIC50.
Result: < 4.30

Task: Specify measured pIC50 for O=C(OCC1OC(OC(=O)c2cc(O)c(O)c(O)c2)C(OC(=O)c2cc(O)c(O)c(O)c2)C(OC(=O)c2cc(O)c(O)c(O)c2)C1OC(=O)c1cc(O)c(O)c(O)c1)c1cc(O)c(O)c(O)c1 (stereo not shown) .
Result: < 4.30

Task: Answer with reported pIC50 of O=C(O)c1cc(O)c2c(c1)[C@@H]([C@@H]1c3cc(C(=O)O)cc(O)c3C(=O)c3c(OC4OC(CO)C(O)C(O)C4O)cccc31)c1cccc(OC3OC(CO)C(O)C(O)C3O)c1C2=O (stereo partly shown) [Compound G11, Sennoside]
Result: < 4.30
